System name: calcineurin (Homo sapiens, UniProt P62937+P63098+Q08209)
Experiment summary: Calcineurin Phosphatase (CaN) Assay
Study conditions: in the presence of CypA, 1:1 complex of inhibitor with CypA
Procedure: Calcineurin Phosphatase (CaN) Assay The calcineurin phosphatase assay is a means for estimating the immunosuppressive potential of a test compound. […] To investigate the immunosuppressive potential of exemplary compounds of Formula I, which are cyclosporin analogs, their ability to inhibit calcineurin activity was measured in the presence and absence of CypA. […]
pIC50: −log10 of the molar value. Starred links: 1 amine or outer side, 2 acyl side, 3 side chain; linkers in the order of their positions; H or OH if unused. Non-standard residues stand in square brackets, D forms with d. Residues, ends and D or L forms follow the SMILES beside them. X1 = C[C@@H]1CCO[C@H]1[C@H](C(=O)[*:2])N(C)[*:1]; NMeL = CN[C@@H](CC(C)C)C(=O)O; dNMeL = CN[C@H](CC(C)C)C(=O)O; dNMeV = CN[C@@H](C(=O)O)C(C)C; dNMeA = CN[C@H](C)C(=O)O
Quantity: pIC50

# count of solved cases: 2
Query block: State, in one line, measured pIC50 of CC[C@H]1NC(=O)[C@@H]([C@@H]2OCCCC[C@H]2C)N(C)C(=O)[C@@H](C(C)C)N(C)C(=O)[C@@H](CC(C)C)N(C)C(=O)[C@@H](CC(C)C)N(C)C(=O)[C@H](C)NC(=O)[C@@H](C)NC(=O)[C@@H](CC(C)C)N(C)C(=O)[C@@H](C(C)C)NC(=O)[C@H](CC(C)C)N(C)C(=O)[C@@H](C)N(C)C1=O [Compound 17]
Result block: 5.11

Query block: State, in one line, measured pIC50 of CC(C)C[C@@H]1C(=O)N(C)[C@H](CC(C)C)C(=O)N(C)[C@H](C(C)C)C(=O)N(C)[C@H]([C@@H]2OCC[C@H]2C)C(=O)N[C@H](C(C)C)C(=O)N(C)[C@H](C)C(=O)N(C)[C@@H](CC(C)C)C(=O)N[C@H](C(C)C)C(=O)N(C)[C@H](CC(C)C)C(=O)N[C@H](C)C(=O)N[C@@H](C)C(=O)N1C [Compound 6] (cyclo(A[dNMeL][dNMeL][dNMeV][X1][dV][dNMeA][NMeL][dV][dNMeL][dA]))
Result block: < 5.00

From here, focus on the item given below.
Query block: State, in one line, measured pIC50 of CC(C)C[C@@H]1C(=O)N(C)[C@H](CC(C)C)C(=O)N(C)[C@H](C(C)C)C(=O)N(C)[C@H]([C@@H]2OC(O)C[C@H]2C)C(=O)N[C@H](C(C)C)C(=O)N(C)CC(=O)N(C)[C@@H](CC(C)C)C(=O)N[C@H](C(C)C)C(=O)N(C)[C@H](CC(C)C)C(=O)N[C@H](C)C(=O)N[C@@H](C)C(=O)N1C (stereo partly drawn) [Compound 13]
Result block: < 5.00
